# kon per entry
- test target: T1, pCD163-SRCR1-9-huFc (porcine, UniProt Q2VL90 47-1028, limits assumed)
- T1 construct: also called pCD163:SRCR1-9-Fc; pCD163SRCR1-9-Fc; not shown: human Fc (huFc)
- T1 sequence: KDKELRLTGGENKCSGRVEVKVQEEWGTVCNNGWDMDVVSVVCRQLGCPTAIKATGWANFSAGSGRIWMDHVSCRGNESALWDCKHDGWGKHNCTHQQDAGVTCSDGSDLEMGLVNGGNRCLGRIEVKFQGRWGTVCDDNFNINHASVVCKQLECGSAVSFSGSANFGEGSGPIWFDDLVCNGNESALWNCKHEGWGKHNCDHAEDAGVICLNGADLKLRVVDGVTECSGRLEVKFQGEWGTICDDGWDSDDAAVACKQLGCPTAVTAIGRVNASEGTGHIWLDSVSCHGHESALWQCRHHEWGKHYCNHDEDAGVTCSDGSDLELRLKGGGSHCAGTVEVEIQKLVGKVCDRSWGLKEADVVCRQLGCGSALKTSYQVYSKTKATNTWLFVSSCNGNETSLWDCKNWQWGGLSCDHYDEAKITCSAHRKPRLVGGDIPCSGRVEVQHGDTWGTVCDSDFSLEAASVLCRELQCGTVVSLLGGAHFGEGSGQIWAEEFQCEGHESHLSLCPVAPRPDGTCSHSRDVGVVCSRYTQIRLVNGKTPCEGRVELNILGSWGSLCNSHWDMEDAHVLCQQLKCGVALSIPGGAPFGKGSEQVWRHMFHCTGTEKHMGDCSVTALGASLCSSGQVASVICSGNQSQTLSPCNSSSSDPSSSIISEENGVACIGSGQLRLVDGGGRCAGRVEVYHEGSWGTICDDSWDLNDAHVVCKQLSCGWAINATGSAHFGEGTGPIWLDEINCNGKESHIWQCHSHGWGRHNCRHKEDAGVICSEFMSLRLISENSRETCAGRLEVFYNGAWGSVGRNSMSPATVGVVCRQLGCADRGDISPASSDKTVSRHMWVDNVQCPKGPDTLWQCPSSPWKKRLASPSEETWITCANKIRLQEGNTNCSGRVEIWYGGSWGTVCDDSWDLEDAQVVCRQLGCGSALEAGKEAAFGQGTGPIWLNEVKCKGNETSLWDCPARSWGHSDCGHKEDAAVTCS
- test method notes: SPR (Biacore 3000), antigen amine-coupled on CM5, VHH injected, pH 7.4
Reply with just the number (in M⁻¹ s⁻¹).

- binder: "VHH 001 (1B02) (VHH, Llama single domain antibody; also called 144(#1); VHCDR3 144(#1); not shown: tags: c-myc tag in periplasmic extract (ELISA, FACS); FLAG and His tags in purified VHH (SPR, infection assays)) VHH: EVQLVESGGGLVQAGGSLSLSCAASGGTLAMYAMSWFRQAPGKDRKFVAAINTSGRYSRYADSVKGRFTISRDNAKNTATLQMNSLEPEDTAVYYCAATDKGNWALAMSYDYWGQGTQVTVSS"
  kon (M⁻¹ s⁻¹): "2.52e+06"

Kindly review the next binder as well.
Data request: Give me measured kon, please, for this binder: VHH 018 (3E01) (VHH, Llama single domain antibody; also called 49(#18); VHCDR3 49(#18); not shown: tags: c-myc tag in periplasmic extract (ELISA, FACS); FLAG and His tags in purified VHH (SPR, infection assays)) VHH: QVQLQESGGGLVQVGGSLRLSCVASGRAPSRYVMGWFRQAPGQEREFVAGIAWSGRAPYADSVKGRSTISRDNAKNTVYLQMNSLKPEDTGVYYCAGGEGAIRWTTLDAYDYWGQGTQVTVSS
Data returned: 814000
